# Assay notes: Compound cytotoxicity, XTT-based colorimetric assay
# Format: cell-based
# Condition info: human; uninfected MT2 cells, day 4, XTT
Measured CC50 at 4 days accompanies every entry in the list below.

Compound: Cc1cc(-c2ccc3c(=O)n(-c4ccc(Cl)c5c(NS(C)(=O)=O)nn(C)c45)c([C@H](Cc4cc(F)cc(F)c4)NC(=O)Cn4nc(C(F)F)c5c4C(F)(F)[C@@H]4C[C@H]54)nc3c2)nn1CC(F)(F)C(F)F (atropisomer, axis not shown; (P))
CC50 at 4 days: > 100 nM
--
Compound: Cn1nc(NS(C)(=O)=O)c2c(Cl)ccc(-n3c([C@H](Cc4cc(F)cc(F)c4)NC(=O)Cn4nc(C(F)F)c5c4C(F)(F)[C@@H]4C[C@H]54)nc4cc(-c5ccn(CCC(F)(F)F)n5)ccc4c3=O)c21 (atropisomer, axis not shown; (P))
CC50 at 4 days: > 100 nM
--
Compound: Cn1nc(NS(C)(=O)=O)c2c(Cl)ccc(-n3c([C@H](Cc4cc(F)cc(F)c4)NC(=O)Cn4nc(C(F)F)c5c4C(F)(F)[C@@H]4C[C@H]54)nc4cc(-c5cncc(C(F)(F)F)n5)ccc4c3=O)c21 (atropisomer, axis not shown; (P))
CC50 at 4 days: > 100 nM
--
Compound: Cn1nc(NS(C)(=O)=O)c2c(Cl)ccc(-n3c([C@H](Cc4cc(F)cc(F)c4)NC(=O)Cn4nc(C(F)F)c5c4C(F)(F)[C@@H]4C[C@H]54)nc4cc(-c5cccc(C(F)F)c5F)ccc4c3=O)c21 (atropisomer, axis not shown; (P))
CC50 at 4 days: > 500 nM
--
Compound: Cn1nc(NS(C)(=O)=O)c2c(Cl)ccc(-n3c([C@H](Cc4cc(F)cc(F)c4)NC(=O)Cn4nc(C(F)F)c5c4C(F)(F)[C@@H]4C[C@H]54)nc4cc(-c5ccnc(C#N)n5)ccc4c3=O)c21 (atropisomer, axis not shown; (P))
CC50 at 4 days: > 500 nM
--
Compound: Cn1nccc1-c1ccc2c(=O)n(-c3ccc(Cl)c4c(NS(C)(=O)=O)nn(C)c34)c([C@H](Cc3cc(F)cc(F)c3)NC(=O)Cn3nc(C(F)F)c4c3C(F)(F)[C@@H]3C[C@H]43)nc2c1 (atropisomer, axis not shown; (P))
CC50 at 4 days: > 500 nM
--
Compound: Cn1nc(NS(C)(=O)=O)c2c(Cl)ccc(-n3c([C@H](Cc4cc(F)cc(F)c4)NC(=O)Cn4nc(C(F)F)c5c4C(F)(F)[C@H]4C[C@@H]54)nc4cc(-c5ccn(CC6CC6)n5)ccc4c3=O)c21 (atropisomer, axis not shown; (P))
CC50 at 4 days: > 500 nM

====

# Tested on: recombinant NL4-3 virus (Renilla luciferase in nef)
# Assay notes: HIV cell culture assay (antiviral activity, luciferase readout in MT-2 cells)
# Assay type: cell-based
# Condition info: Renilla, NL43
Measured EC50 accompanies every entry in the list below.
Parameter: EC50

Compound: Cn1nc(NS(C)(=O)=O)c2c(Cl)ccc(-n3c([C@H](Cc4cc(F)cc(F)c4)NC(=O)Cn4nc(C(F)F)c5c4C(F)(F)[C@@H]4C[C@H]54)nc4cc(-c5ccn(CCCF)n5)ccc4c3=O)c21 (atropisomer, axis not shown; (P))
Value observed: 0.042 nM
//
Compound: C[C@H](C(=O)N[C@@H](Cc1cc(F)cc(F)c1)c1nc2cc(-c3ccn(CC(C)(F)F)n3)ccc2c(=O)n1-c1ccc(Cl)c2c(NS(C)(=O)=O)nn(C)c12)n1ccc(C2CC2)n1 (atropisomer, axis not shown; (P))
Value observed: 0.17 nM
//
Compound: Cn1nc(NS(C)(=O)=O)c2c(Cl)ccc(-n3c([C@H](Cc4cc(F)cc(F)c4)NC(=O)Cn4nc(C(F)(F)F)c5c4C(F)(F)[C@@H]4C[C@H]54)nc4cc(-c5ccn(CC(C)(F)F)n5)ccc4c3=O)c21 (atropisomer, axis not shown; (P))
Value observed: 0.069 nM
//
Compound: Cn1nc(NS(C)(=O)=O)c2c(Cl)ccc(-n3c([C@H](Cc4cc(F)cc(F)c4)NC(=O)Cn4nc(C(F)F)c5c4C(F)(F)[C@@H]4C[C@H]54)nc4cc(-c5cnn(CC(F)(F)F)c5)ccc4c3=O)c21 (atropisomer, axis not shown; (P))
Value observed: 0.097 nM
